Where these numbers come from: the supplement of paper PMC4723716

test system: Plasmodium falciparum NF54 stage V gametocytes; experiment: viability index relative to DMSO control (fraction); higher = less gametocyte killing; settings: 2.5 µM, library set: Broad Institute DOS, incubation time: 72 h
Whole data set: some 9,900 compounds, median “viability index relative to DMSO control” near 1, cut for the lowest 2% near 0.85. The sample holds the lowest values, similar compounds and a random draw of the others, so the mix is not that of the screen.
In this section, each of the compounds is paired with its reported viability index.
Lab note: jot down the number only; don't add units.

GIVEN_SMILES | TGT | viability index
Cc1noc(C)c1NC(=O)N1C[C@@H](O)COC[C@H]2O[C@@H](CC(=O)N[C@@H]3CCN(Cc4ccccc4)C3)CC[C@@H]21 | Plasmodium falciparum NF54 stage V gametocytes | 0.994
C[C@@H]1CN([C@H](C)CO)C(=O)Cc2cc(NC(=O)CCN3CCOCC3)ccc2O[C@@H]1CN(C)Cc1ccc(C(=O)O)cc1 | Plasmodium falciparum NF54 stage V gametocytes | 1
C[C@@H]1CN([C@@H](C)CO)C(=O)c2cc(NS(=O)(=O)c3cccs3)ccc2O[C@@H](C)CCCCO[C@H]1CN(C)C(=O)c1ccncc1 | Plasmodium falciparum NF54 stage V gametocytes | 1.07
O=C(C[C@@H]1CC[C@H](NC(=O)C2CC2)[C@H](CO)O1)Nc1ccccc1 | Plasmodium falciparum NF54 stage V gametocytes | 0.916
C[C@@H]1CN([C@@H](C)CO)C(=O)c2cccc(NC(=O)c3ccc(-c4nccs4)cc3)c2O[C@@H]1CN(C)C(=O)Nc1ccc(C(F)(F)F)cc1 | Plasmodium falciparum NF54 stage V gametocytes | 0.556

State the recorded viability index for this entry: Cc1ccc(S(=O)(=O)N(C)C[C@H]2Oc3cc(C#CC4CCCC4)ccc3S(=O)(=O)N([C@H](C)CO)C[C@H]2C)cc1
0.877

// query viability index value for entry CCCC#Cc1ccc2c(c1)O[C@H](CN(C)Cc1ccccn1)[C@@H](C)CN([C@@H](C)CO)S2(=O)=O
1.02

Could you share which viability index value was measured for CN1CCN(C(=O)C[C@H]2CC[C@@H]3[C@H](COC[C@H](O)CN3Cc3cccc(-c4ccncc4)c3)O2)CC1 ?
1.08

Recorded viability index for Cc1noc(C)c1S(=O)(=O)N(C)C[C@@H]1OCc2cn(nn2)CCCC(=O)N([C@@H](C)CO)C[C@H]1C , please?
1.03

Field request: viability index | item: CCCC#Cc1ccc2c(c1)O[C@@H](CN(C)Cc1ccccn1)[C@@H](C)CN([C@@H](C)CO)S2(=O)=O
0.884

Which viability index is reported for this compound? Cc1noc(C)c1S(=O)(=O)N(C)C[C@@H]1Oc2c(NC(=O)c3ccc(-c4nccs4)cc3)cccc2C(=O)N([C@@H](C)CO)C[C@@H]1C
0.955

###

The reader will find reported viability index values listed item by item below.
tested on: Plasmodium falciparum NF54 stage V gametocytes; assay: viability index relative to DMSO control (fraction); higher = less gametocyte killing; details: 2.5 µM, library set: Broad Institute DOS, incubation time: 72 h
The full ranking holds about 9,900 compounds; the median of “viability index relative to DMSO control” is about 1, and the lowest 2% start at about 0.85. This is one part of a sample in which the lowest values are shown more often than they occur.
Could you respond with only the numeric value?

Consider the reported viability index for these compounds:
GIVEN_SMILES | viability index
CC(=O)NC[C@H]1[C@@H](c2ccc(C#Cc3ccccc3F)cc2)[C@@H](CO)N1C(C)=O | 1.05
O=C(O)C[C@H]1C[C@H]2c3cc(NC(=O)Nc4ccc(C(F)(F)F)cc4)ccc3O[C@H]2[C@@H](CO)O1 | 1.06
C[C@@H]1CN([C@H](C)CO)C(=O)c2cc(NS(=O)(=O)c3cn(C)cn3)ccc2O[C@@H](C)CCCCO[C@@H]1CN(C)Cc1ccc2c(c1)OCO2 | 1.15
COc1ccc(NC(=O)N2C[C@@H]3[C@H](c4ccccc42)[C@H](CO)N3Cc2ccccn2)cc1 | 0.993
COc1ccc(S(=O)(=O)Nc2ccc3c(c2)CC(=O)N([C@@H](C)CO)C[C@H](C)[C@H](CN(C)Cc2ccc(C(=O)Nc4ccccc4N)cc2)O3)cc1 | 0.993

Looking for the measured viability index of COC(=O)C[C@H]1CC[C@H]2[C@@H](COc3ccc(NS(=O)(=O)c4ccc(C)cc4)cc3C(=O)N2C)O1 , can you help?
1.11

Which measured viability index value corresponds to CO[C@H]1CC[C@@H]2CCOc3c(C#N)cccc3C(=O)N(C)C[C@H](OC)[C@@H](C)C(=O)N(C)C[C@@H]1O2 ?
1.01

###

tested on: Plasmodium falciparum NF54 stage V gametocytes; assay: viability index relative to DMSO control (fraction); higher = less gametocyte killing; settings: 2.5 µM, library set: Broad Institute DOS, incubation time: 72 h
Over roughly 9,900 compounds, “viability index relative to DMSO control” has its median near 1; the lowest 2% begin near 0.85. The sample holds the lowest values, similar compounds and a random draw of the others, so the mix is not that of the screen.
Catalogue of viability index values

Example entries begin here.
GIVEN_SMILES | TEST_READOUT | ASSAY_VALUE
CS(=O)(=O)N1CC(=O)N2[C@@H](CO)[C@H](c3ccc(Br)cc3)[C@@H]2C1 | viability index | 1.05
O=C(c1cnccn1)N1CC(=O)N2[C@H](CO)[C@@H](c3ccc(-c4cccc(F)c4)cc3)[C@@H]2C1 | viability index | 0.99
O=C(c1ccccc1)N1CC(=O)N2[C@H](C1)[C@@H](c1ccc(-c3ccccc3)cc1)[C@@H]2CO | viability index | 0.829

Now let's try a different one.
Can you share its viability index? I mean this compound: COc1cccc(-c2ccccc2[C@@H]2[C@H](C#N)N(C(=O)c3ccccn3)[C@H]2CO)c1
1.1

###

test system: Plasmodium falciparum NF54 stage V gametocytes; assay: viability index relative to DMSO control (fraction); higher = less gametocyte killing; details: 2.5 µM, library set: Broad Institute Blood Stage, incubation time: 72 h
In all, about 9,900 compounds were measured (“viability index relative to DMSO control”: median about 1, lowest 2% from about 0.85 on). The full list was thinned out, with the lowest values kept by preference.
TEST_READOUT: viability index
# answer = number (no unit)

GIVEN_SMILES | TEST_READOUT | ASSAY_VALUE
C[C@H](CO)N1C[C@H](C)[C@H](CN(C)S(=O)(=O)c2ccc(C(F)(F)F)cc2)OCc2ccccc2-c2c(n(C)c3ccccc23)C1=O | viability index | 0.693
COc1cccc(C#Cc2ccc([C@@H]3[C@@H](C#N)N(C(=O)C4CCCCC4)[C@H]3CO)cc2)c1 | viability index | 0.7
C[C@H]1CN([C@@H](C)CO)C(=O)c2c(c3ccccc3n2C)-c2ccccc2CO[C@H]1CN(C)S(=O)(=O)c1ccc(C(F)(F)F)cc1 | viability index | 0.705

Given O=C(Cc1ccccc1)N1CC(=O)N2[C@H](CO)[C@H](c3ccc(C#CCc4ccccc4)cc3)[C@H]2C1 , state its recorded viability index.
0.699

###

system: Plasmodium falciparum NF54 stage V gametocytes; assay: viability index relative to DMSO control (fraction); higher = less gametocyte killing; details: 2.5 µM, library set: Broad Institute DOS, incubation time: 72 h
In all, about 9,900 compounds were measured (“viability index relative to DMSO control”: median about 1, lowest 2% from about 0.85 on). Only a selection was taken, and the lowest values are over-represented in it overall.
Reported values of viability index for individual entries

// below: answered compounds
GIVEN_SMILES | viability index
C[C@@H]1C/C=C/C[C@@H](c2ccccc2)NC(=O)[C@H](C)N(C)C(=O)c2ccccc2O1.C[C@@H]1C/C=C\C[C@@H](c2ccccc2)NC(=O)[C@H](C)N(C)C(=O)c2ccccc2O1 | 1
COc1ccc2c3c([nH]c2c1)[C@@H](CO)N(Cc1cc(OC)cc(OC)c1)C[C@]31CN(C1)C(=O)Nc1c(C)noc1C | 0.974

Here is another compound to look at.
Query (compound): O=S(=O)(c1ccccc1)N1CCCCN2[C@H](CO)[C@@H](c3ccc(C#CC4CCCC4)cc3)[C@@H]2C1 ; field requested: viability index
1.01

###

Below, each entry is listed with its recorded viability index.
test system: Plasmodium falciparum NF54 stage V gametocytes; assay: viability index relative to DMSO control (fraction); higher = less gametocyte killing; conditions: 2.5 µM, library set: Broad Institute DOS, incubation time: 72 h
Whole data set: some 9,900 compounds, median “viability index relative to DMSO control” near 1, cut for the lowest 2% near 0.85. The sample holds the lowest values, similar compounds and a random draw of the others, so the mix is not that of the screen.
No unit in the answer, only the number.

Take a look at these entries with their results.
GIVEN_SMILES | viability index
O=C(Cc1ccncc1)N1CC[C@@H]2[C@H]1c1cc(-c3ccccc3F)ccc1N[C@@H]2CO | 1.03
C[C@H](CO)N1C[C@H](C)[C@@H](CN(C)Cc2ccc(Oc3ccccc3)cc2)Oc2c(NC(=O)CCC(F)(F)F)cccc2C1=O | 0.888

// next entry
What measured viability index goes with C[C@H](CO)N1C[C@H](C)[C@@H](CN(C)Cc2ccccc2)Oc2c(NC(=O)Cc3cn(C)c4ccccc34)cccc2C1=O ?
0.744
